molecular target: PD-L1 His protein / PD-1 Fc protein (Homo sapiens (Human), UniProt Q9NZQ7); test: HTRF Assay (PD-1/PD-L1 interaction); format: binding; conditions: PD-L1 His 6 nM, PD-1 Fc 6 nM
Sequence (Q9NZQ7 19-238): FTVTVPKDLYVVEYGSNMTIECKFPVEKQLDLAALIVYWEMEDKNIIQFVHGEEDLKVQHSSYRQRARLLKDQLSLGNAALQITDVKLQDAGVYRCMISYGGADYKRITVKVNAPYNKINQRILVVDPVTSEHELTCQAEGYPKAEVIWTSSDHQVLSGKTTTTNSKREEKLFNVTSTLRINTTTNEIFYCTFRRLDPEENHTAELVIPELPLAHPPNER
IC50 overview

Consider the worked cases shown below.
>  <Compound>
COc1cc(-c2nccc(-c3cccc(-c4cc(F)c(CNC[C@@H]5CCC(=O)N5)c(OC)n4)c3Cl)c2Cl)cc2c1CN(CCO)CC2

>  <IC50>
0.408 nM

$$$$
>  <Compound>
COc1nc(-c2cccc(-c3ccnc(-c4ccc(CN5CC6(C5)CN(C(C)=O)C6)c(OC(F)F)c4)c3Cl)c2Cl)ccc1CN1CC2(CNC(=O)C2)C1

>  <IC50>
0.74 nM

$$$$

Item: COc1nc(-c2cccc(-c3ccnc(-c4ccc5c(CN6CC[C@H](C(=O)O)C6)nn(C)c5c4)c3Cl)c2Cl)ccc1CNC[C@@H]1CCC(=O)N1 | IC50: 0.3 nM

Item: COc1nc(-c2ccnc(-c3cccc4c3CC[C@@H]4Nc3nc(OC)c(CNC4(C(=O)O)CC4)cc3C(F)(F)F)c2Cl)ccc1CNC[C@@H]1CCC(=O)N1 | IC50: 0.49 nM

Item: COc1cc(-c2nccc(-c3cccc(-c4ccc(CNC5CC6(COC6)C5)c(OC)n4)c3Cl)c2Cl)cnc1CNC1CC2(COC2)C1 (stereo not drawn) | IC50: 4.1 nM

Item: COc1cc(-c2nccc(-c3cccc(NC(=O)c4ccc(CNC5CCOCC5)cn4)c3C)c2Cl)ccc1CNC1CCOCC1 | IC50: 0.48 nM

Item: CNCc1ccc(-c2cccc(-c3ccnc(-c4ccc(CN5CC[C@H](C(=O)OC(C)C)C5)c(OC)c4)c3Cl)c2Cl)nc1OC | IC50: 404 nM

====

EC50 overview
target: human PD-L1 (Homo sapiens (Human)); assay: T cell activation luciferase reporter cell culture system (T Cell Activation Assay); assay type: cell-based; conditions: luciferase reporter assay; PD-L1 aAPC/CHO-K1 cells with PD-1 effector Jurkat T cells
Dear colleague, please return just the value in nM, with no unit written.

>  <Structure As Smiles>
COCCNCc1cn(C)c2nc(-c3cccc(-c4ccnc(-c5ccc(CNC[C@@H]6CCC(=O)N6)c(OC)c5)c4Cl)c3Cl)ccc12

>  <Unit Annotation>
nM

>  <EC50>
59

$$$$

Item: COc1cc(-c2nccc(-c3cccc(-c4ccc(CN5CC6(CCNC6=O)C5)c(OC)n4)c3Cl)c2Cl)ccc1CNC1CCN(C(C)=O)CC1 | EC50: 56.7

Item: COc1cc(-c2nccc(-c3cccc(-c4cc(Cl)c(CNC[C@@H]5CCC(=O)N5)c(OC)n4)c3Cl)c2Cl)ccc1CNCC(=O)O | EC50: 191

====

target: human PD-L1 (Homo sapiens (Human), UniProt Q9NZQ7); experiment: T cell activation luciferase reporter cell culture system (T Cell Activation Assay); assay type: cell-based; settings: luciferase reporter assay; PD-L1 aAPC/CHO-K1 cells with PD-1 effector Jurkat T cells
Sequence (Q9NZQ7 19-290): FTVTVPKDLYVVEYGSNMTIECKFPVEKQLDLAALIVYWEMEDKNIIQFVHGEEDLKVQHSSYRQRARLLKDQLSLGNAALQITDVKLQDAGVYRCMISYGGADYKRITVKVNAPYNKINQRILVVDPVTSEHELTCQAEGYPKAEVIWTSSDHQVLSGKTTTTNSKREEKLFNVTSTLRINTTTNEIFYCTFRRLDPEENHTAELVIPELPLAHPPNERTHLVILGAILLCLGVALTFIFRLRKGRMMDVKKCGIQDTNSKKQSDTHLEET
pEC50: −log10 of the molar value.
# cutoff 7 applies to pEC50; >= gives Y, < gives N

>  <Structure As Smiles>
COc1cc(-c2nccc(-c3cccc(-c4ccc(CN[C@H]5CC[C@@H](O)CC5)c(OC)n4)c3Cl)c2Cl)ccc1CN1CC2(CNC(=O)C2)C1

>  <Target System>
human PD-L1 (Homo sapiens (Human), UniProt Q9NZQ7)

>  <Class Label>
Y

$$$$

Determine whether measured pEC50 meets or exceeds 7 for COc1cc(-c2nccc(-c3cccc(-c4ccc(CN5CC6(CNC(=O)N6)C5)c(OC)n4)c3Cl)c2Cl)ccc1CNC1CCN(C(C)=O)CC1 Y

Determine whether measured pEC50 meets or exceeds 7 for COc1cc(-c2nccc(-c3cccc(-c4ccc(CNC[C@@H]5CCC(=O)N5)c(OC)n4)c3Cl)c2Cl)cc(F)c1CNC1CC2(C1)CN(C(C)=O)C2 Y

Determine whether measured pEC50 meets or exceeds 7 for COc1cc(-c2cccc(-c3ccnc(-c4ccc5c(c4)CN(CCNC[C@@H]4CCC(=O)N4)C5=O)c3Cl)c2Cl)cc(F)c1CNC[C@@H]1CCC(=O)N1 N

Determine whether measured pEC50 meets or exceeds 7 for COc1cc(-c2ncnc(-c3cccc(-c4ccc(CNCCO)c(OC)n4)c3Cl)c2Cl)ccc1CNCCO Y
